All figures here come from patent US20240209076A1.

tgt: T1, recombinant human IL-6 (human, UniProt P05231 30-212)
T1 construct: Bought protein
measurement-description: SPR Biacore, purified Ab on Protein A chip, IL-6 analyte, 37 C
value-kind: Kd (nM)
The figure you give is taken to be in nM; do not add the unit.

Which value of Kd has been reported for anti-IL-6 antibody, light chain D49E (heavy chain WT) (antibody, V domains shown, See note of m2; also called WT / D49E) VH: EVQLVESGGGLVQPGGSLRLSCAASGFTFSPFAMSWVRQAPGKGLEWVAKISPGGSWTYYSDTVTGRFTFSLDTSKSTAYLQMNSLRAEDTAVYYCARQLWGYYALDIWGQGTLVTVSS VL: DIQLTQSPSSLSASVGDRVTITCSASISVSYMYWYQQKPGKAPKLLIYEMSNLASGVPSRFSGSGSGTDFTLTISSLQPEDFATYYCMQWSGYPYTFGQGTKVEIK in the records?
0.624

Which value of Kd has been reported for anti-IL-6 antibody, light chain T96V (heavy chain WT) (antibody, V domains shown, See note of m2; also called WT / T96V) VH: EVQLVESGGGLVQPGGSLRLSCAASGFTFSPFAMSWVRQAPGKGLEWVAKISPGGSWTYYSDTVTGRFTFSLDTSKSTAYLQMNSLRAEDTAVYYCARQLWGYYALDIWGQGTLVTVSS VL: DIQLTQSPSSLSASVGDRVTITCSASISVSYMYWYQQKPGKAPKLLIYDMSNLASGVPSRFSGSGSGTDFTLTISSLQPEDFATYYCMQWSGYPYVFGQGTKVEIK in the records?
0.695

Which value of Kd has been reported for anti-IL-6 antibody, heavy chain variant II (M34W, G66D, I108V) / light chain variant V (M32L, M50D, M88Q) (antibody, V domains shown, See note of m39; also called M34W, G66D, I108V/ M32L, M50D, M88Q; II/V) VH: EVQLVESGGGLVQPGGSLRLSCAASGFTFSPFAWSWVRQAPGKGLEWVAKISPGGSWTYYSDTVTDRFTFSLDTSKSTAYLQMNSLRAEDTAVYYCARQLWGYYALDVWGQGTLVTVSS VL: DIQLTQSPSSLSASVGDRVTITCSASISVSYLYWYQQKPGKAPKLLIYDDSNLASGVPSRFSGSGSGTDFTLTISSLQPEDFATYYCQQWSGYPYTFGQGTKVEIK in the records?
0.465
